- System under test: human recombinant serotonin 5-HT2A receptor (Homo sapiens)
- Sequence (P28223 whole entry): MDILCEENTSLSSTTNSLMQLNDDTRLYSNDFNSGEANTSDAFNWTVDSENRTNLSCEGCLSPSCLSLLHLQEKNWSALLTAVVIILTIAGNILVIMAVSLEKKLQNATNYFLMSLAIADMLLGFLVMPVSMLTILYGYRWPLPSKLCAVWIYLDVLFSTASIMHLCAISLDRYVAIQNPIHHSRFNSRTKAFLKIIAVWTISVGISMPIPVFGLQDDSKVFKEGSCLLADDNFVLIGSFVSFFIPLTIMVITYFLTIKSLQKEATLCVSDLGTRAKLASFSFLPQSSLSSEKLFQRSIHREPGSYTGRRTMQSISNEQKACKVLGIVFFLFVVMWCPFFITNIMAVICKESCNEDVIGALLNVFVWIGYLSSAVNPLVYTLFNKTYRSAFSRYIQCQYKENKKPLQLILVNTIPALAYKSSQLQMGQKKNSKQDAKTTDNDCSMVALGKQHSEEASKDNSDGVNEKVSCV
- Experimental protocol: Binding affinity for serotonin 5-HT2A receptor ([3H]Ketanserin)
- Recorded conditions: CHO-K1 expressed receptor, 1 nM [3H]Ketanserin
Structures can show the parent of a compound that is named as a salt.
Output schema: class label derived from IC50. Mapping: 1: < 40 nM; 2: ≥ 40 nM and < 100 nM; 3: ≥ 100 nM

Example entries and their recorded answers appear below.
CCCn1c(-c2ccccc2)cc(C(=O)NCCCN2CCN(c3ccccc3C#N)CC2)c1C [Example 90, hydrochloride] : 3
Cc1c(C(=O)NCCCN2CCN(c3cccc(Cl)c3Cl)CC2)c(C)n(C)c1-c1ccccc1 [Example 79, hydrochloride] : 1
Cc1c(C(=O)N(C)CCCN2CCN(c3cccc(Cl)c3Cl)CC2)cc(-c2ccccc2)n1C [Example 37, hydrochloride] : 1
Cc1c(C(=O)NCCCN2CCN(c3cccc(Cl)c3)CC2)cc(-c2ccccc2)n1C [Example 1] : 2
O=C(NCCCN1CCN(c2cccc(Cl)c2Cl)CC1)c1c[nH]c(-c2ccccc2)c1 [Example 124] : 1

Sort CCCn1c(-c2ccccc2)cc(C(=O)NCCCN2CCN(c3cccc(Cl)c3Cl)CC2)c1C [Example 12] into one of the categories.
3

Entry Cc1[nH]c(C(C)(C)C)cc1C(=O)NCCCN1CCN(c2cccc(Cl)c2Cl)CC1 [Example 127, hydrochloride] belongs to which category?
3

Lab note: which band did CCn1c(-c2ccc(OC)cc2)cc(C(=O)NCCCN2CCN(c3cccc(Cl)c3Cl)CC2)c1C [Example 75, hydrochloride] land in?
3

In plain terms, what class is Cc1cccc(N2CCN(CCCNC(=O)c3cc(-c4ccccc4)[nH]c3C)CC2)c1C [Example 24] ?
3

Using the reported IC50, which band applies to Cc1[nH]c(-c2ccccn2)cc1C(=O)NCCCN1CCN(c2cccc(Cl)c2Cl)CC1 [Example 91, dihydrochloride] ?
1

Categorize the following entry: Cc1c(C(=O)NCCN2CCN(c3cccc(Cl)c3Cl)CC2)cc(C(C)(C)C)n1C [Example 169]
2

Could you place CCn1c(-c2ccc(Cl)cc2)cc(C(=O)NCCN2CCN(c3cccc(Cl)c3Cl)CC2)c1C [Example 69, hydrochloride] in its proper category? Many thanks.
3

Hey, which category is Cc1c(C(=O)NCCCN2CCN(c3ccc(F)cc3)CC2)cc(-c2ccccc2)n1C [Example 155] in, do you know?
1

====

# pIC50 measurements, system: human serotonin transporter (Homo sapiens)
# Sequence (P31645 whole entry): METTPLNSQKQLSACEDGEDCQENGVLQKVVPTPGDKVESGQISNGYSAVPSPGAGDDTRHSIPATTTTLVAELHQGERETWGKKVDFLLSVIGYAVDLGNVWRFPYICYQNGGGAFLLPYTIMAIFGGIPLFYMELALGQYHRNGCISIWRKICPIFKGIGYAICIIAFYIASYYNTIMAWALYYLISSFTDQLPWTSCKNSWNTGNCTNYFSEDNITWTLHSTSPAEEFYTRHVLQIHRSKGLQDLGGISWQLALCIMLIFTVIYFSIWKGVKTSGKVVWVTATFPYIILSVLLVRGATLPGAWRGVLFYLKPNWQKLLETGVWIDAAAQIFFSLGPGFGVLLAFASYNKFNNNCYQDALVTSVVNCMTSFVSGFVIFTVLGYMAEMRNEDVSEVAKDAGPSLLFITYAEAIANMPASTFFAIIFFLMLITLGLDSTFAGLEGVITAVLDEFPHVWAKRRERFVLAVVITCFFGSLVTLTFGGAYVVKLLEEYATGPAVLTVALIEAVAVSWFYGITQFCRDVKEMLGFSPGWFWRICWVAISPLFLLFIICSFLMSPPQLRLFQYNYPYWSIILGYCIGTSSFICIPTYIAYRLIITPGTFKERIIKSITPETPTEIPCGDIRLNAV
Counter-ions that a name gives are not always drawn.
Answers are plain numbers, as −log10 of the molar value.

Cc1[nH]c(-c2ccccc2)cc1C(=O)NCCN1CCN(c2cccc(Cl)c2Cl)CC1 [Example 38, hydrochloride] : 7.06
CCn1c(-c2ccccc2)cc(C(=O)NCCCCN2CCN(c3cccc(Cl)c3Cl)CC2)c1C [Example 43, hydrochloride] : 7.19
Cc1[nH]c(-c2ccccc2)c(C)c1C(=O)NCCN1CCN(c2cccc(Cl)c2Cl)CC1 [Example 76, hydrochloride] : 6.79
CCCn1c(-c2ccncc2)cc(C(=O)NCCCN2CCN(c3cccc(Cl)c3Cl)CC2)c1C [Example 107] : 7.11
CCCn1c(-c2ccccc2)cc(C(=O)N(C)CCCN2CCN(c3cccc(Cl)c3Cl)CC2)c1C [Example 31, hydrochloride] : 6.99
Cc1c(C(=O)N(C)CCCN2CCN(c3cccc(Cl)c3Cl)CC2)cc(-c2ccccc2)n1C [Example 37, hydrochloride] : 7.01

Return pIC50 measured with human serotonin transporter (Homo sapiens) given this compound: Cc1c(C(=O)NCCCN2CCN(c3cccc(Cl)c3Cl)CC2)cc(-c2ccccc2)n1Cc1ccccc1 [Example 19]
6.90
